These data points were gathered from patent US20220073643A1.

- Target of assay: T1, human Claudin18.2 (human)
- T1 construct: also called CLDN18.2
- Test description: FACS, Claudin18.2-HEK293 cells
Measured metric: Span
Keep it simple and answer with nothing but the number.

{"columns": ["Binder", "Span"],
 "data": [
  ["humanized 207F8G5-VH1.7 + VL1 (antibody, human IgG1, kappa, V domains shown, humanized, human IgG1/kappa constant regions) VH: QVQLVQSGAEVKKPGASVKVSCKASGFTFTSYNIHWVKQAPGQGLEWMGYISPGNGGSNYNLKFKDRVTLTSDTSISTAYMELSRLRSDDTAVYYCATGRGFAYWGQGTLVTVSS VL: DIVMTQSPDSLAVSLGERATINCKSSQSLFNSGNQKNYLIWYQQKPGQPPKLLIYRASTRDSGVPDRFSGSGSGTDFTLTISSLQAEDVAVYYCQNDYSYPLTFGGGTKLEIKR", 13800]
]}

Continue with the next binder.
q: Recorded Span of humanized 410H6H3-VH1.2 + VL1 (antibody, human IgG1, kappa, V domains shown, humanized, human IgG1/kappa constant regions) VH: EVQLVESGGGLVQPGGSRRLSCAASGFTFSSSGMHWVRQAPGKGLEWVSYISSGSNTIYYADTLKGRFTISRDNAKNTLFLQMNSLRAEDTAVYYCARIYYGNSFVYWGQGTLVTVSS VL: DIVMTQSPDSLAVSLGERATINCKSSQSLLNSGNQKNYLTWYQQKPGQPPKLLIYWASTRESGVPDRFSGSGSGTDFTLTISSLQAEDVAVYYCQNNYYYPLTFGQGTKLEIKR , please.
a: 73000
